Assay: In vitro EDTA challenge study
Type: physicochemical
Conditions: EDTA 100-fold, pH 7.0, 37 C, 7 d
recorded_endpoint: % Intact of 89Zr-complexes (%)
# value in %; strip the unit string

[
  {
    "molecule": "CC(=O)N1CCCCCNC(=O)CCC(=O)N2CCCCCNC(=O)CCC(=O)N(CCCCCN)[O][89Zr+]([O]1)[O]2 [89Zr-DFO, reference compound]",
    "% Intact of 89Zr-complexes [%]": 83.9
  },
  {
    "molecule": "NC(=O)CN1CCN(CC(N)=O)CCN(CC(N)=O)CCN(CC(N)=O)CC1.[89Zr+4] [89Zr-DOTAM]",
    "% Intact of 89Zr-complexes [%]": 72.1
  }
]

So, O=C1CN2CCN3CCN4CCN(CC2)CC(=O)[O][89Zr]([O]1)([O]C(=O)C3)[O]C(=O)C4 [89Zr-DOTA] ? Its % Intact of 89Zr-complexes was 100

So, O=P1(O)CN2CCN3CCN4CCN(CC2)CP(=O)(O)[O][89Zr]([O]1)([O]P(=O)(O)C3)[O]P(=O)(O)C4 [89Zr-DOTP] ? Its % Intact of 89Zr-complexes was 92.5

---

Assay: In vitro metal competition study
Assay type: physicochemical
Settings: Gd3+, PBS pH 7.4, 37 C, 2 h
Documented % Intact of 89Zr-complexes across a set of compounds
# value in %; strip the unit string

Solved cases below.
[
  {
    "compound": "CC(=O)N1CCCCCNC(=O)CCC(=O)N2CCCCCNC(=O)CCC(=O)N(CCCCCN)[O][89Zr+]([O]1)[O]2 [89Zr-DFO, reference compound]",
    "recorded_endpoint": "% Intact of 89Zr-complexes",
    "result_units": "%",
    "measured_number": 99.4
  },
  {
    "compound": "O=C1CN2CCN3CCN4CCN(CC2)CC(=O)[O][89Zr]([O]1)([O]C(=O)C3)[O]C(=O)C4 [89Zr-DOTA]",
    "recorded_endpoint": "% Intact of 89Zr-complexes",
    "result_units": "%",
    "measured_number": 100
  },
  {
    "compound": "NC(=O)CN1CCN(CC(N)=O)CCN(CC(N)=O)CCN(CC(N)=O)CC1.[89Zr+4] [89Zr-DOTAM]",
    "recorded_endpoint": "% Intact of 89Zr-complexes",
    "result_units": "%",
    "measured_number": 93.9
  }
]

# next compound below
So, O=P1(O)CN2CCN3CCN4CCN(CC2)CP(=O)(O)[O][89Zr]([O]1)([O]P(=O)(O)C3)[O]P(=O)(O)C4 [89Zr-DOTP] ? Its % Intact of 89Zr-complexes was 99.5

---

Documented % Intact of 89Zr-complexes across a set of compounds
Test: In vitro EDTA challenge study
Type: physicochemical
Details: EDTA 100-fold, pH 7.0, 37 C, 1 d
# value in %; strip the unit string

So, NC(=O)CN1CCN(CC(N)=O)CCN(CC(N)=O)CCN(CC(N)=O)CC1.[89Zr+4] [89Zr-DOTAM] ? Its % Intact of 89Zr-complexes was 90.9

---

Experiment: In vitro metal competition study
Format: physicochemical
Settings: Cu2+, PBS pH 7.4, 37 C, 1 d
recorded_endpoint: % Intact of 89Zr-complexes (%)
# value in %; strip the unit string

[
  {
    "molecule": "O=P1(O)CN2CCN3CCN4CCN(CC2)CP(=O)(O)[O][89Zr]([O]1)([O]P(=O)(O)C3)[O]P(=O)(O)C4 [89Zr-DOTP]",
    "measured_number": 95.4
  },
  {
    "molecule": "O=C1CN2CCN3CCN4CCN(CC2)CC(=O)[O][89Zr]([O]1)([O]C(=O)C3)[O]C(=O)C4 [89Zr-DOTA]",
    "measured_number": 100
  }
]

So, NC(=O)CN1CCN(CC(N)=O)CCN(CC(N)=O)CCN(CC(N)=O)CC1.[89Zr+4] [89Zr-DOTAM] ? Its % Intact of 89Zr-complexes was 86.7

So, CC(=O)N1CCCCCNC(=O)CCC(=O)N2CCCCCNC(=O)CCC(=O)N(CCCCCN)[O][89Zr+]([O]1)[O]2 [89Zr-DFO, reference compound] ? Its % Intact of 89Zr-complexes was 98.6
